Taken from patent US7109193B2.

# TESTED_ON: human vasopressin V1a receptor subtype (Homo sapiens, UniProt P37288)
# Construct: host or cells: CHO cells (pZeoSV vector for the Thibonnier line)
# Sequence (P37288 whole entry): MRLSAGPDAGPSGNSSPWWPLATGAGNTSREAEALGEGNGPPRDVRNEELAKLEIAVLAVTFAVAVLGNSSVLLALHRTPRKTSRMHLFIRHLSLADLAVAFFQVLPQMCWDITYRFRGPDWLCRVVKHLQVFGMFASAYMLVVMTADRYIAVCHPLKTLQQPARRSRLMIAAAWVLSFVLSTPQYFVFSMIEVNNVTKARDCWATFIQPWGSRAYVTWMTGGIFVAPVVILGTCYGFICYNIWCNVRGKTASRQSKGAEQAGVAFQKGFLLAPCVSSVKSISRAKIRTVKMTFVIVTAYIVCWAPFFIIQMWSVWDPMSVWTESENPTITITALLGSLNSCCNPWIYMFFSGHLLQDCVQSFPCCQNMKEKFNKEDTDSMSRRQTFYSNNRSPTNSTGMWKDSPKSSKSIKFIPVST
# EXPERIMENT: Vasopressin binding in Chinese Hamster Ovary cell membranes expressing human vasopressin V1a subtype receptors
# PROTOCOL_CONDITIONS: 100 nM, CHO cell membranes, [3H]Manning ligand, values without parentheses
PROPERTY_NAME: inhibition at 0.1 µM (%)
Report the value in % with no unit label.

q: Look up and report measured inhibition at 0.1 µM for this entry: Cc1ccccc1-c1ccc(C(=O)N2Cc3ccc(C(=O)N4CCN(CCN5CCOCC5)CC4)n3Cc3ccccc32)cc1
a: 64

q: Look up and report measured inhibition at 0.1 µM for this entry: COc1ccccc1-c1ccc(C(=O)N2Cc3ccc(C(=O)N4CCC(N5CCCC5)CC4)n3Cc3ccccc32)cc1
a: 24

q: Look up and report measured inhibition at 0.1 µM for this entry: COc1cc(C(=O)N2Cc3ccc(C(=O)n4ccnc4)n3Cc3ccccc32)ccc1-c1cccc2ccccc12
a: 2

q: Look up and report measured inhibition at 0.1 µM for this entry: Cc1cc(C(=O)N2Cc3ccc(C(=O)N4CCN(C(=O)OC(C)(C)C)CC4)n3Cc3ccccc32)ccc1-c1ccccc1C(F)(F)F
a: 2

---

Target or system UniProt P30518: recorded pIC50 listed per item.
Sequence (P30518 whole entry): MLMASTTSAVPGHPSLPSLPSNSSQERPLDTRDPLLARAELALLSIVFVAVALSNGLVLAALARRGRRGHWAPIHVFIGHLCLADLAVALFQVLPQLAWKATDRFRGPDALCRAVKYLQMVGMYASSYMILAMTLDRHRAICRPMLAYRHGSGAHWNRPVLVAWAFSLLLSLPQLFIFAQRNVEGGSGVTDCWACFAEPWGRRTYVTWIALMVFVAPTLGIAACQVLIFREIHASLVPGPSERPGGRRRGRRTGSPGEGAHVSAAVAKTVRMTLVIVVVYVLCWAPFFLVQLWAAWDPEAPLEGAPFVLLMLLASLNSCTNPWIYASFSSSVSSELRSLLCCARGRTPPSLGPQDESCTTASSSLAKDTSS
Structures can show the parent of a compound that is named as a salt.
Quick note: pIC50 means taking -log10 of the concentration in moles per liter.

Illustrative cases are given below, each with its answer.
COMPOUND: COc1cccc(-c2cc(OC)c(C(=O)N3Cc4ccc(C(=O)N(C)CCN(C)C)n4Cc4ccccc43)cc2Cl)c1
pIC50: 5.66

COMPOUND: Cc1cc(C(=O)N2Cc3ccc(C(=O)N4CCNCC4)n3Cc3ccccc32)ccc1-c1ccccc1C(F)(F)F [Example 7, hydrochloride salt]
pIC50: 5.61

COMPOUND: COc1cc(-c2ccccc2Cl)c(Cl)cc1C(=O)N1Cc2ccc(C(=O)N(C)C3CCN(C)CC3)n2Cc2ccccc21
pIC50: 6.39

COMPOUND: C=CCN1CCN(C(=O)c2ccc3n2Cc2ccccc2N(C(=O)c2cc(Cl)c(-c4ccccc4C)cc2OC)C3)CC1
pIC50: 5.88

COMPOUND: COc1cccc(-c2cc(OC)c(C(=O)N3Cc4ccc(C(=O)N(C)CCCN(C)C)n4Cc4ccccc43)cc2Cl)c1
pIC50: 5.88

COMPOUND: COc1cc(-c2ccccc2F)c(Cl)cc1C(=O)N1Cc2cccn2Cc2ccccc21 [Example 18B]
pIC50: 6.72

q: Look up and report measured pIC50 for this entry: Cc1cc(C(=O)N2Cc3ccc(C(=O)N(C)CCN(C)C)n3Cc3ccccc32)ccc1-c1ccccc1C(F)(F)F
a: 5.51

---

# TESTED_ON: human oxytocin receptor (Homo sapiens, UniProt P30559)
# Construct: host or cells: CHO cells (pcDNA3.1 vector)
# Sequence (P30559 1-389): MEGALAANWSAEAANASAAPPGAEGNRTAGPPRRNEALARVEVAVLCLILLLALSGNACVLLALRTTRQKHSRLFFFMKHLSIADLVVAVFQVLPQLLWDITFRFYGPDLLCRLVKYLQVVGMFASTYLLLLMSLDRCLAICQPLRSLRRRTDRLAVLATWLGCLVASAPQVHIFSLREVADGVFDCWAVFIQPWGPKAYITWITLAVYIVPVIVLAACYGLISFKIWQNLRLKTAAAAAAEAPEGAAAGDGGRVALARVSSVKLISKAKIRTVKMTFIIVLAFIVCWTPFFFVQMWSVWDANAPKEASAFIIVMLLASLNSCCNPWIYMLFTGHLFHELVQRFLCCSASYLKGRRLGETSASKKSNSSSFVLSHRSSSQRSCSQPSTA
# EXPERIMENT: Oxytocin binding in Chinese Hamster Ovary cell membranes expressing human oxytocin receptors
# PROTOCOL_CONDITIONS: 100 nM, CHO cell membranes, [3H]oxytocin, values without parentheses, read-out: OT % inhibition @ 100% nM
# Description: Oxytocin Binding in Chinese Hamster Ovary Cell Membranes Expressing Human Oxytocin Receptors The trypsin is removed by aspiration and the cells dislodged by tapping. Cell Culture medium (e.g. 30 mL for 1:30 split) is immediately added and mixed well to inactivate trypsin. […] The filter paper is thoroughly dried (7–12 min. in a microwave oven) and impregnated with MeltiLex B/H melt-on scintillation wax sheets and the radioactivity counted in a betaplate scintillation counter. […]
// inhibition at 0.1 µM lookup, one value per entry
I'd appreciate it if you wrote the number followed by its unit.

q: Quote inhibition at 0.1 µM with test system human oxytocin receptor (Homo sapiens, UniProt P30559) for COc1cc(C(=O)N2Cc3ccc(C(=O)N4CCN(CCCN(C)C)CC4)n3Cc3ccccc32)ccc1-c1ccccc1C [Example 250]
a: 87%

q: Quote inhibition at 0.1 µM with test system human oxytocin receptor (Homo sapiens, UniProt P30559) for COc1ccccc1-c1ccc(C(=O)N2Cc3ccc(C(=O)NCCC4CCCN4C)n3Cc3ccccc32)cc1OC (stereo not shown) [Example 171]
a: 40%

q: Quote inhibition at 0.1 µM with test system human oxytocin receptor (Homo sapiens, UniProt P30559) for COc1cccc(-c2cc(OC)c(C(=O)N3Cc4ccc(C(=O)N5CCN(CCCN(C)C)CC5)n4Cc4ccccc43)cc2Cl)c1 [Example 252]
a: 72%

q: Quote inhibition at 0.1 µM with test system human oxytocin receptor (Homo sapiens, UniProt P30559) for O=C(c1ccc2n1Cc1ccccc1N(C(=O)c1ccc(-c3cccc4ccccc34)cc1Cl)C2)N1CCC(N2CCCC2)CC1 [Example 147]
a: 33%
